target: T1, human CD71 extracellular domain (human, UniProt P02786 89-760, biotinylated); assay: primary ELISA; further: test concentration or dose not given here
T1 construct: also called hCD71; CD71-ECD
T1 sequence (P02786 89-760): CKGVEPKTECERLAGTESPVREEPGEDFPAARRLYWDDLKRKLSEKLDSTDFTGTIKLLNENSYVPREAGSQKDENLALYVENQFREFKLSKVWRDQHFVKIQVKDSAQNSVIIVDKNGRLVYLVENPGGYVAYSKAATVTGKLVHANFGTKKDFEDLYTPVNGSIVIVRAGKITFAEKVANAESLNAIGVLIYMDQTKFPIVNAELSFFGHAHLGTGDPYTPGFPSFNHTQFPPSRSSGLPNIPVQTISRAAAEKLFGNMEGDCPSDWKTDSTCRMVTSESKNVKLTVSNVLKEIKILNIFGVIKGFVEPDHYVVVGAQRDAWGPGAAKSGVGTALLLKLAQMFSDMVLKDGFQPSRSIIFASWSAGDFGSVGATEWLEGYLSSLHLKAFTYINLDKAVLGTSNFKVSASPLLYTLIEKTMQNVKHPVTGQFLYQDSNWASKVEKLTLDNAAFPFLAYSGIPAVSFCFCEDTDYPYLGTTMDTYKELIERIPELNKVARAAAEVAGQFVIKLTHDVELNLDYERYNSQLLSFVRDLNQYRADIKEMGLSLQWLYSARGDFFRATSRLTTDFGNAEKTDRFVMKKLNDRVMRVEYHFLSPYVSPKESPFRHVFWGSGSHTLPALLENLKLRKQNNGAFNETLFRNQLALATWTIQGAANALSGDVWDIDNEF
Metric: RLU (RLU)

(a) CD71-binding FN3 domain of SEQ ID NO: 462 (designed binder) MLPAPKNLVVSRVTEDSARLSWTAPDAAFDSFFIGYLEPQPPGEAIHLQVPGSERSYDLTGLKPGTEYNVTIQGVKGGFPSVPLHARFTT
(b) CD71-binding FN3 domain of SEQ ID NO: 449 (designed binder) MLPAPKNLVVSRVTEDSARLSWTAPDAAFDSFYIAYQELSLWGEAIVLTVPGSERSYDLTGLKPGTEYNVTIQGVKGGFPSLPLAAQFTT
(c) CD71-binding FN3 domain of SEQ ID NO: 472 (designed binder) MLPAPKNLVVSRVTEDSARLSWTAPDAAFDSFFIGYLEPQPPGEAIELYVPGSERSYDLTGLKPGTEYNVTIQGVKGGFPSLPLVATFTT
Output the entries ranked by RLU from maximum down to minimum. Present the labels in the sequence the task asks for.
b, c, a
(b: 6.75e+06 RLU, c: 4.52e+06 RLU, a: 2.83e+06 RLU)

(P) CD71-binding FN3 domain of SEQ ID NO: 460 (designed binder) MLPAPKNLVVSRVTEDSARLSWTAPDAAFDSFFIGYLEPQPPGEAISLYVPGSERSYDQTGLKPGTEYNVTIQGVKGGFPSDPLSARFTT
(Q) CD71-binding FN3 domain of SEQ ID NO: 464 (designed binder) MLPAPKNLVVSRVTEDSARLSWTAPDAAFDSFFIGYLEPQPPGEAIQLFVPGSERSYDLTGLKPGTEYNVTIQGVKGGFPSTPLVASFTT
I would appreciate it if you could say which entry, P or Q , has the lower RLU value. Please reply using the label of the selected record.
P
